Property: IC50; scope: individual compounds
Test system: W12I 20862 cervical precancer cells
Test: Growth inhibition MTT assay on W12 clone 20862 (type 2 integrant)
Assay type: cell-based
Conditions: 120 h, read-out: IC50, growth inhibitory activity on W12 clone 20862
Reply with just the number (in µg/mL).

[[record]]
compound = "COC1=CC(=O)O[C@@H](CCc2ccc3c(c2)OCO3)C1 [DHM, dihydromethysticin]"
measured_result = 12.8

[[record]]
compound = "CC(=O)O[C@@H]1C[C@@]23C[C@@]24CC[C@H](O[C@@H]2OC[C@@H](O)[C@H](O)[C@H]2O)C(C)(C)[C@@H]4CC[C@H]3[C@]2(C)C[C@@H]3O[C@]4(C[C@@H](C)[C@@H]3[C@@]12C)O[C@H](O)[C@@]1(C)O[C@@H]41 [actein]"
measured_result = 36.3

[[record]]
compound = "C[C@H]1O[C@@H](O[C@H]2[C@@H](O)C[C@H](O[C@H]3[C@@H](O)C[C@H](O[C@H]4CC[C@@]5(C)[C@H](CC[C@@H]6[C@@H]5C[C@@H](O)[C@]5(C)[C@@H](C7=CC(=O)OC7)CC[C@]65O)C4)O[C@@H]3C)O[C@@H]2C)C[C@H](O)[C@@H]1O [digoxin, reference compound]"
measured_result = 0.0245


Request: Identify the reported IC50 for the following entry. CC(C)c1cc2c(c(O)c1O)[C@@]1(C(=O)O)CCCC(C)(C)[C@@H]1CC2 [carnosic acid]
Result: 10

* * *

Tested on: W12I 20861 cervical precancer cells
Assay: Growth inhibition MTT assay on W12 clone 20861 (type 2 integrant)
Assay type: cell-based
Conditions: 120 h, read-out: IC50, growth inhibitory activity on W12 clone 20861
Property: IC50; scope: individual compounds
Reply with just the number (in µg/mL).

Some solved entries appear below for comparison.
[[record]]
compound = "COC1=CC(=O)O[C@@H](CCc2ccc3c(c2)OCO3)C1 [DHM, dihydromethysticin]"
target_system = "W12I 20861 cervical precancer cells"
endpoint_name = "IC50"
measured_result = 12.4

[[record]]
compound = "CC(C)c1cc2c(c(O)c1O)[C@@]1(C(=O)O)CCCC(C)(C)[C@@H]1CC2 [carnosic acid]"
target_system = "W12I 20861 cervical precancer cells"
endpoint_name = "IC50"
measured_result = 14.1

[[record]]
compound = "CC(=O)O[C@@H]1C[C@@]23C[C@@]24CC[C@H](O[C@@H]2OC[C@@H](O)[C@H](O)[C@H]2O)C(C)(C)[C@@H]4CC[C@H]3[C@]2(C)C[C@@H]3O[C@]4(C[C@@H](C)[C@@H]3[C@@]12C)O[C@H](O)[C@@]1(C)O[C@@H]41 [actein]"
target_system = "W12I 20861 cervical precancer cells"
endpoint_name = "IC50"
measured_result = 37.9

[[record]]
compound = "Cc1coc2c1C(=O)C(=O)c1c-2ccc2c1CCCC2(C)C [tanshinone IIA]"
target_system = "W12I 20861 cervical precancer cells"
endpoint_name = "IC50"
measured_result = 1.4


Request: Identify the reported IC50 for the following entry. C[C@H]1O[C@@H](O[C@H]2[C@@H](O)C[C@H](O[C@H]3[C@@H](O)C[C@H](O[C@H]4CC[C@@]5(C)[C@H](CC[C@@H]6[C@@H]5C[C@@H](O)[C@]5(C)[C@@H](C7=CC(=O)OC7)CC[C@]65O)C4)O[C@@H]3C)O[C@@H]2C)C[C@H](O)[C@@H]1O [digoxin, reference compound]
Result: 0.0037
